assayed-system: T1, 3A
T1 construct: also called HLA-A2 / point-mutant NY-ESO peptide 3A complex on T2 cells
assay-remarks: flow cytometry on peptide-pulsed T2 cells, scFv 100 nM
reported-metric: standardized gMFI
API doc: respond with a numeric literal and nothing else, no unit.

The binder identified as NYA-2061 (scFv, also called NYA-2061 tag adduct) scFv: GEVQLVESGGGLVQPGGSLRLSCAASGFSIRSYDIHWVRQAPGKGLEWVATISYDGSQKYYADSVKGRFTISRDESKNTLYLQMNSLRAEDTAVYHCARGSSGHYEAFDIWGQGTLVTVSSGGGGSGGGGSGGGGSQSVLTQPPSASGTPGQRVTISCSGSSSNIGNWYVSWYQQLPGTAPKLLIYDNNKRPSGVPDRFSGSKSGTSASLAISGLQSEDEADYYCGTWDSSLSAPWVFGGGTKLTVLGAAAGAGGDYKDDDDKGAAAHHHHHH registered its standardized gMFI at 4.73
